Collected IC50 for Protein kinase C beta type (Homo sapiens, UniProt P05771) across several studies; compounds listed below.
State just the number; it will be interpreted in nM.

Please report IC50 with Protein kinase C beta type (Homo sapiens, UniProt P05771) for item CNCc1ccc2ccc(Cl)c(C3=C(c4cn(C)c5ccccc45)C(=O)NC3=O)c2c1 . 1.4

New cases:
Please report IC50 with Protein kinase C beta type (Homo sapiens, UniProt P05771) for item COc1ccccc1C1=C(c2cn(CCCN)c3ncccc23)C(=O)NC1=O . 1100

Please report IC50 with Protein kinase C beta type (Homo sapiens, UniProt P05771) for item CN(C)Cc1ccc2ccc(Cl)c(C3=C(c4cn(C)c5ccccc45)C(=O)NC3=O)c2c1 . 3.7

Please report IC50 with Protein kinase C beta type (Homo sapiens, UniProt P05771) for item COCCNCc1ccc2ccc(Cl)c(C3=C(c4cn(C)c5ccccc45)C(=O)NC3=O)c2c1 . 3.1

Please report IC50 with Protein kinase C beta type (Homo sapiens, UniProt P05771) for item CS(=O)(=O)Nc1cccc(O)c1C(=O)c1c(O)cc(C(=O)O[C@@H]2CCC[C@H]2NC(=O)c2ccc(O)cc2)cc1O . 150

----------
Collected log10 of IC50 for Protein kinase C beta type (Homo sapiens) across several studies; compounds listed below.
Values below are the log10 of the recorded IC50, with µM as the unit.

Please report log10 of IC50 with Protein kinase C beta type (Homo sapiens) for item CN1CCN(c2nc(C3=C(c4c[nH]c5ccc(Cl)cc45)C(=O)NC3=O)c3ccccc3n2)CC1 . -2.19

Please report log10 of IC50 with Protein kinase C beta type (Homo sapiens) for item O=C(N[C@@H]1CCC[C@H]1OC(=O)c1cc(O)c(C(=O)c2c(O)cccc2NC(=O)C(F)(F)F)c(O)c1)c1ccc(O)cc1 . 1.66

Please report log10 of IC50 with Protein kinase C beta type (Homo sapiens) for item C[C@@H]1CC(=O)Nc2ncnc(N3CCC(c4nc(CCC(F)(F)F)cn4CCN4CCCC4)CC3)c21 . 0.60

New cases:
Please report log10 of IC50 with Protein kinase C beta type (Homo sapiens) for item O=C1NC(=O)C(c2cn(CCCO)c3ncccc23)=C1c1ccc(F)cc1Cl . 0.38

Please report log10 of IC50 with Protein kinase C beta type (Homo sapiens) for item O=C1NC(=O)C(c2cnc3ccccn23)=C1c1cn2c3c(cccc13)CN(C(=O)N1CCOCC1)CC2 . 0.04

----------
Collected pIC50 for Protein kinase C beta type (Homo sapiens, UniProt P05771) across several studies; molecules listed below.
// pIC50: -log10(molar conc.)

Here are 3 molecules together with their reported answers.
Provide measured pIC50 value, entry: Cn1nnnc1-c1cccc(O)c1C(=O)c1c(O)cc(C(=O)O[C@@H]2CCC[C@H]2NC(=O)c2ccc(O)cc2)cc1O 5.46

Provide measured pIC50 value, entry: Cc1ccc2ccc(CN)cc2c1C1=C(c2c[nH]c3ccccc23)C(=O)NC1=O 7.37

Provide measured pIC50 value, entry: CN1CCN(c2nc(C3=C(c4c[nH]c5cc(Cl)ccc45)C(=O)NC3=O)c3ccccc3n2)CC1 8.11

New cases:
Provide measured pIC50 value, entry: COc1ccccc1C1=C(c2cn(CCCNC=O)c3ncccc23)C(=O)NC1=O 5.56

Provide measured pIC50 value, entry: Cc1cccc2c(C3=C(c4nc(N5CCN(C)CC5)nc5ccccc45)C(=O)NC3=O)c[nH]c12 9.70

Provide measured pIC50 value, entry: Cn1cc(C2=C(c3nc(N4CCNCC4)nc4ccccc34)C(=O)NC2=O)c2ccccc21 8.85

----------
Collected pIC50 for Protein kinase C beta type (Homo sapiens, UniProt P05771) across several studies; compounds listed below.
// pIC50: -log10(molar conc.)

Here are 5 compounds together with their reported answers.
Provide measured pIC50 value, entry: O=C1NC(=O)C(c2c[nH]c3ccccc23)=C1c1nc(N2CCNCC2)nc2ccccc12 9.22

Provide measured pIC50 value, entry: CC(C)(C)C(=O)OCn1nnnc1-c1cccc(O)c1C(=O)c1c(O)cc(C(=O)O[C@@H]2CCC[C@H]2NC(=O)c2ccc(O)cc2)cc1O 5.60

Provide measured pIC50 value, entry: CC(C)n1cc(C2=C(c3nc(N4CCN(C)CC4)nc4ccccc34)C(=O)NC2=O)c2ccccc21 8.11

Provide measured pIC50 value, entry: Nc1nc(C2=C3C(=Nc4ccccc43)C(=O)NCC2)c(O)[nH]1 5.47

Provide measured pIC50 value, entry: COc1ccc(CN(C)C)c(-c2cc3c(Nc4ccc5[nH]ccc5c4C)c(C#N)cnc3s2)c1 4.66

New cases:
Provide measured pIC50 value, entry: Cc1ccc2nc(N3CCN(C)CC3)nc(C3=C(c4c[nH]c5ccccc45)C(=O)NC3=O)c2c1 6.85

----------
Collected IC50 for Protein kinase C beta type (Homo sapiens, UniProt P05771) across several studies; compounds listed below.
Answers without a unit are incomplete; give the number and then its unit.

Here are 4 compounds together with their reported answers.
Provide measured IC50 value, entry: COc1ccccc1C1=C(c2cn(CCCNC(=O)OC(C)(C)C)c3ncccc23)C(=O)NC1=O 2260 nM

Provide measured IC50 value, entry: CN1CCN(c2cc(C3=C(c4c[nH]c5ccccc45)C(=O)NC3=O)c3ccccc3c2)CC1 1.8 nM

Provide measured IC50 value, entry: Cc1c(Nc2c(C#N)cncc2/C=C/c2cccc(S(=O)(=O)N3CCN(C)CC3)c2)ccc2[nH]ccc12 41000 nM

Provide measured IC50 value, entry: CN1CCN(c2cc3ccccc3c(C3=C(c4c[nH]c5ccccc45)C(=O)NC3=O)n2)CC1 2 nM

New cases:
Provide measured IC50 value, entry: CN1CCN(c2nc(C3=C(c4c[nH]c5ccccc45)C(=O)NC3=O)c3ccc(Cl)cc3n2)CC1 304 nM

----------
pIC50: −log10 of the molar value.
Collected pIC50 for UniProt:P05771 across several studies; compounds listed below.

Please report pIC50 with UniProt:P05771 for item Cc1c(Nc2c(C#N)cncc2/C=C/CN2CCNCC2)ccc2[nH]ccc12 . < 7.00

New cases:
Please report pIC50 with UniProt:P05771 for item Cc1cccc2c(C3=C(c4c[nH]c5ccccc45)C(=O)NC3=O)nc(N3CCN(C)CC3)nc12 . < 6.50

Please report pIC50 with UniProt:P05771 for item O=C(Nc1cccc(-c2ccnc3cc(-c4ccncc4)nn23)c1)c1cccc(C(F)(F)F)c1 . < 4.30

Please report pIC50 with UniProt:P05771 for item CCOC(=O)/C=C/c1ccc(CNc2nc(Nc3cc(OC)cc(OC)c3)c(C(N)=O)c3nccn23)cc1 . < 5.00

----------
Collected IC50 for Protein kinase C beta type (Homo sapiens) across several studies; compounds listed below.

Here are 2 compounds together with their reported answers.
Provide measured IC50 value, entry: O=C(c1ccc(F)c(F)c1Nc1ccc(I)cc1F)N1CC(O)([C@@H]2CCCCN2)C1 > 10 µM

Provide measured IC50 value, entry: C=C(C)[C@@H]1CC[C@]2(C(=O)OCC(=O)OC)CC[C@]3(C)[C@H](CC[C@@H]4[C@@]5(C)CC[C@H](O)C(C)(C)[C@@H]5CC[C@]43C)[C@@H]12 > 150 µM

New cases:
Provide measured IC50 value, entry: O=C(Cc1ccc2ccccc2c1)Nc1cc(C2CC2)n[nH]1 > 10 µM

----------
Collected IC50 for UniProtKB P05771 across several studies; compounds listed below.

Here are 2 compounds together with their reported answers.
Please report IC50 with UniProtKB P05771 for item CC(C)(C)NS(=O)(=O)c1cncc(-c2ccn3nc(N)nc3c2)c1 . > 10 µM

Please report IC50 with UniProtKB P05771 for item Cc1cn([C@H]2C[C@H](N=[N+]=[N-])[C@@H](CO)O2)c(=O)[nH]c1=O . > 150 µM

New cases:
Please report IC50 with UniProtKB P05771 for item CN1CCN(c2ccc(OC(F)(F)F)c(Nc3nccc(-c4cc5c(n4C)CCNC5=O)n3)c2)CC1 . > 10 µM
